- Target entity: G9a and GLP (Homo sapiens, UniProt Q96KQ7+Q9H9B1)
- Construct: endogenous in cells; host or cells: HEK 293T
- Sequence (Q96KQ7 2-1210 limits assumed): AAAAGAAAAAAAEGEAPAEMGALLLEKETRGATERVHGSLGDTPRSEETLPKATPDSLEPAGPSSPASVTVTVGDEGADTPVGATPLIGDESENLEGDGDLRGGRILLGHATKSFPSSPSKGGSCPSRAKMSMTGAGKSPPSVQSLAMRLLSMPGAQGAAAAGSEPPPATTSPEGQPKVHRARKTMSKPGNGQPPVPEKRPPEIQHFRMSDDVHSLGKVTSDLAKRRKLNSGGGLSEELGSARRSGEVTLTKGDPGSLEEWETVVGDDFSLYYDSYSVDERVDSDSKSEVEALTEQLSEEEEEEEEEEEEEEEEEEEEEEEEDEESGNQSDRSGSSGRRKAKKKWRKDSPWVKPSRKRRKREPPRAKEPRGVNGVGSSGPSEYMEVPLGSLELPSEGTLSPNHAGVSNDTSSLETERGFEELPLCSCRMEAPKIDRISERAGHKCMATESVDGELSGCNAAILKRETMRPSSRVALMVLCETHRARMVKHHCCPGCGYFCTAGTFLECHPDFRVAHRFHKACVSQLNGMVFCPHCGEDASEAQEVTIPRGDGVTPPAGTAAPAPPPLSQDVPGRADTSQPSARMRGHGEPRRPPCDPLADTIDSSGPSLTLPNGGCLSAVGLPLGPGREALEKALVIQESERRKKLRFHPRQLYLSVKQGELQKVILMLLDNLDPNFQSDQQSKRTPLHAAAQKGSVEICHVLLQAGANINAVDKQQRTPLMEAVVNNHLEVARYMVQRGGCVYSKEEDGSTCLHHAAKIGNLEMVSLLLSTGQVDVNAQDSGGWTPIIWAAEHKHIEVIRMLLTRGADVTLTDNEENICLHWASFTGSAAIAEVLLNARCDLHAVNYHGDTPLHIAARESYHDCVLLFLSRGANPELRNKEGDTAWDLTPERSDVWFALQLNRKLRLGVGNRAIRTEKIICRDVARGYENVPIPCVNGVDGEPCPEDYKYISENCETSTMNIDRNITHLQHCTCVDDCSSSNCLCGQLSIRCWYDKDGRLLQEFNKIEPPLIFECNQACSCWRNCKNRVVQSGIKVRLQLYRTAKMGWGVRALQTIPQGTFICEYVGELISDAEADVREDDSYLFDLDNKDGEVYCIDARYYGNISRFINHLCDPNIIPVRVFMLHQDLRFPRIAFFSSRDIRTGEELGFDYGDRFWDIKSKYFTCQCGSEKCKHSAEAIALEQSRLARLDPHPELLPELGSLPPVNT
- Sequence (Q9H9B1 2-1298 limits assumed): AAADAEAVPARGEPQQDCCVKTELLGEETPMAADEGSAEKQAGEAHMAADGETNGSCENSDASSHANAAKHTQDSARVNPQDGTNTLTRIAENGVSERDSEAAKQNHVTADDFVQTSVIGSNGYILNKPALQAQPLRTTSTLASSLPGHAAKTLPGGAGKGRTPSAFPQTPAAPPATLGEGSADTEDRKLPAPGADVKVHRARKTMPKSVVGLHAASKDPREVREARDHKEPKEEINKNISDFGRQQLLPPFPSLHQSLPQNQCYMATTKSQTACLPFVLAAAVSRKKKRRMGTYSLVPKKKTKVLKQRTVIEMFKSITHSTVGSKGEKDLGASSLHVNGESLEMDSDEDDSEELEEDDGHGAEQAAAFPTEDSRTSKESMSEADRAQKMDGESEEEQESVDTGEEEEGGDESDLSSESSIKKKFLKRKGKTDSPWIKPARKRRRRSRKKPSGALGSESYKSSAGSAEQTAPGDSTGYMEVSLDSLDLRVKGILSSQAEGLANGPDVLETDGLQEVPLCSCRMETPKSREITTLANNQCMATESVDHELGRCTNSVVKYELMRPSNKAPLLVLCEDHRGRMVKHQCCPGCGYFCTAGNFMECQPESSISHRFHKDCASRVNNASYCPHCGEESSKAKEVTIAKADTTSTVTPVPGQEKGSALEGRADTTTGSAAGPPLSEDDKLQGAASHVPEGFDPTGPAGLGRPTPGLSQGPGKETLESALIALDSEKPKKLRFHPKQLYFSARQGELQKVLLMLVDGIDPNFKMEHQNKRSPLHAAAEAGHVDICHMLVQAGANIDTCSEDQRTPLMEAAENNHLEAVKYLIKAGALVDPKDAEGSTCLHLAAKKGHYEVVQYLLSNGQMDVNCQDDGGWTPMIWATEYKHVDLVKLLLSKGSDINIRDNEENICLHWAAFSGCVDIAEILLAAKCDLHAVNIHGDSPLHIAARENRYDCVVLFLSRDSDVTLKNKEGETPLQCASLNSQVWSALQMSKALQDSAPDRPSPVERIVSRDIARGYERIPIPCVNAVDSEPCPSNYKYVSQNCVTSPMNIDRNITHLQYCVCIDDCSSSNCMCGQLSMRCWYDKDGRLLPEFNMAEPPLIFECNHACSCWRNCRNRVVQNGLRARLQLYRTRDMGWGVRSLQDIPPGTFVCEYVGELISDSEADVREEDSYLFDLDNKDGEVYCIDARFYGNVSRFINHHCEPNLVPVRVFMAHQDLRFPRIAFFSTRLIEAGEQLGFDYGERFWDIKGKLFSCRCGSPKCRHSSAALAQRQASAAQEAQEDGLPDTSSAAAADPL
- Procedure summary: Triple SILAC pull-down after UNC0638 treatment of 293T cells, DMSO/UNC0638 ratio of protein captured by 3×MBT;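 note: mass spectrometry (Q-Exactive) SILAC quantitation, DMSO/UNC0638 ratio computed after subtracting 3×MBTD355N mutant pull-down background, only proteins with at least twofold 3×MBT over mutant signal considered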
- Type: cell-based
- Condition: SILAC ratio DMSO/UNC0638 of protein pulled down with 3xMBT; UNC0638 in light SILAC media
Reported Relative to UNC0638 UNC Light values for the following substances.
Recorded metric: Relative to UNC0638 UNC Light (log base 2)

>>> readout_number("HNRNPU")
0.28
>>> readout_number("KHDRBS1")
0.19
>>> readout_number("SMARCA5")
0.32
>>> readout_number("TARDBP")
0.21
>>> readout_number("HNRNPK")
0.10
>>> readout_number("HNRNPAB")
0.32
